Tested on: MDA-N
TEST DETAILS: NCI tumour cell line growth inhibition, 48 h
Activity calls are given as the source filed them. Rule as the data show it: active = GI50 up to about 1.1 µM and inactive = higher. Where a SMILES comes first, the peptide text is derived from it.
Below, each of the molecules is paired with its reported GI50 value.

Query: Checklist item: GI50 tested on MDA-N, entry CCC(C)C(NC(=O)C1CCCN1C(=O)C(CC(C)C)NC(=O)C(CC(C)C)NC(=O)C(N)CC(C)C)C(=O)NC(C(=O)NCC(=O)NC(CC(N)=O)C(=O)NC(CC(C)C)C(=O)NC(CC(C)C)C(=O)NC(CC(C)C)C(N)=O)C(C)C (stereo not drawn) (H-LLLPIVGNLLL-NH2; configuration not given here) , value?
Result: > 50 µM (inactive)

====

System: NCI/ADR-RES
TEST DETAILS: NCI tumour cell line growth inhibition, 48 h
Calls of active or inactive are those of the source. Cut-off read from the data, not from the text of the source: active = GI50 up to about 1.1 µM and inactive = higher.
Below, each of the molecules is paired with its reported GI50 value.

Query: Can you share its GI50? I mean this molecule: O=C1O/C(=C\c2ccc(O)cc2)C(c2ccc(O)c(Cl)c2)=C1Br
Result: 11.1 µM (inactive)

Query: Input COC(=O)C1OC2(CCCC3CC32)O[C@H]1C(=O)OC (some centres not stated)
Result: > 100 µM (inactive)

Query: Input CC(C)(C)c1ccc(O)c(CN(Cc2cc(C(C)(C)C)ccc2O)C2CCCCC2)c1
Result: 20.3 µM (inactive)

// next entry
Query: Can you share its GI50? I mean this molecule: CC(=O)c1cc2sc3ccccc3c2[nH]1
Result: > 100 µM (inactive)

====

System: HCC 2998
TEST DETAILS: NCI tumour cell line growth inhibition, 48 h
The source made the active and inactive calls. No stated cut-off is given here; in the data, active = GI50 up to about 1.1 µM and inactive = higher. Non-standard residues stand in square brackets, D forms with d. Residues, ends and D or L forms follow the SMILES beside them. *: point of attachment. hSer = N[CH](CCO)C(=O)O; Boc = CC(C)(C)OC(=O)*
# output must be one of class 1 for active, class 0 for inactive

Illustrative cases are given below, each with its answer.
Query: Please state the recorded outcome for this compound: O=C1c2cc(Cl)ccc2-n2c(noc2=O)C2CSCN12 (stereo not drawn)
Result: class 0

Query: Input Cc1ccc2nc(NC(=O)/C(Cc3nc4ccc(Cl)cc4nc3O)=N\NC(C)(C)C)sc2c1
Result: class 0

Others:
Query: Please state the recorded outcome for this compound: COCCC(NC(=O)C(CC(C)C)NC(=O)OC(C)(C)C)C(N)=O (stereo not drawn) (Boc-Leu-[hSer](Me)-NH2; configuration not given here)
Result: class 0

Query: Input O=C1C2C(C(=O)N1c1ccccc1)C1([N+](=O)[O-])C=C3c4ccccc4N(C(=O)c4ccccc4)C32C2C(=O)N(c3ccccc3)C(=O)C21 (stereo not drawn)
Result: class 0

Query: Input CC(C)(C)OC(=O)NC(Cc1ccccc1)C(=O)N[C@H]1c2ccsc2/C(=N/O)[C@H]1O (stereo partly drawn)
Result: class 0

Query: Input COC(=O)C1=C(C)N(NC(N)=O)C(C)(O)C12CCOC2=O (stereo not drawn)
Result: class 1

Query: Input COC(=O)c1cc2c3c(cc(N(C)C)c2[nH]1)N(C(=O)c1cc2cc(OC)c(OC)c(OC)c2[nH]1)CC3CCl (stereo not drawn)
Result: class 1

Query: Input O=C1CCC2(c3ccc(Cl)cc3)Nc3ncncc3N12 (stereo not drawn)
Result: class 0
